# Assay Procedure: in vivo
# Experimental Parameters: male, SD, rat, 2 mg/kg, Concentration (plasma), individual rat
Measured Quantity: concentration at 1 h (ng/mL)

• Nc1ncn([C@H]2C[C@H](O)[C@@H](CO)S2)c(=O)n1 [Form F, 5-Aza-4′-thio-2′-deoxycytidine] = 886

----------
# Assay Procedure: Pharmacokinetics of capsules in male SD rats
# Experimental Parameters: male, SD, rat, plasma, oral, 2 mg/kg, Concentration (plasma), Mean, 4 h, capsule, mean of two male SD rats
Measured Quantity: concentration at 4 h (ng/mL)

- Nc1ncn([C@H]2C[C@H](O)[C@@H](CO)S2)c(=O)n1: 415
